# target system: p70S6K (Homo sapiens)
# Construct: purchased Carna Biosciences
# Sequence (P23443 whole entry): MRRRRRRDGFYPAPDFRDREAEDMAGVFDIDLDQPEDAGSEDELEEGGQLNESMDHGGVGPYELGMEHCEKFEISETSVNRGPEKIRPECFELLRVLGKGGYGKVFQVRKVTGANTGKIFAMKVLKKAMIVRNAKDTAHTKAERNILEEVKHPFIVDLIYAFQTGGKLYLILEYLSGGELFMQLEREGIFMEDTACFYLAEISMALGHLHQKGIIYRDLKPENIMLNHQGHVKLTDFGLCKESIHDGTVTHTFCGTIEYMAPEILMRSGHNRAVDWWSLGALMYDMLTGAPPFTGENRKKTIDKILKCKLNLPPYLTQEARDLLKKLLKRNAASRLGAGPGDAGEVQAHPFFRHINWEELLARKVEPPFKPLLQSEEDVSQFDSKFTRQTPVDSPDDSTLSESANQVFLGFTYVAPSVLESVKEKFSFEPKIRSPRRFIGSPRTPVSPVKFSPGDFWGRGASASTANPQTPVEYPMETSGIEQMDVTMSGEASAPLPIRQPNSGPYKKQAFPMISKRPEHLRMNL
# procedure summary: Kinase panel profiling at 1 µmol/L (mobility shift assay, Carna)
# Type: biochemical
# assay conditions: 1 µmol/L of BTK inhibitor
Listing of entries alongside the reported Percentage inhibition of kinase enzyme activity.
measured parameter: Percentage inhibition of kinase enzyme activity (%)

>>> print(df.to_string())
                           smiles_structure  number
0  C=CC(=O)N1CCC[C@@H](n2nc(-c3ccc(Oc4ccccc4)cc3)c3c(N)ncnc32)C1   19.28
1  CC#CC(=O)N1CCC[C@H]1c1nc(-c2ccc(C(=O)Nc3ccccn3)cc2)c2c(N)nccn12  -13.73
2  COc1ccc(F)cc1C(=O)NCc1ccc(-c2nn([C@@H](C)C(F)(F)F)c(N)c2C(N)=O)cc1   -0.48
3  O=C(c1ccc(Oc2ccccc2)cc1Cl)c1c[nH]c2ncnc(N[C@@H]3CC[C@@H](CO)OC3)c12    4.51
